test system: p38-alpha; construct: gene MAPK14; conditions: concentration: 1 μM, replicates: in singlicate; n = 1;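 further: KINOMEscan kinase panel screen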

{"COMPOUND": "CCNC(=O)/C=C/c1n[nH]c2cc(Sc3ccccc3C(=O)NC)ccc12", "TARGET_DESC": "p38-alpha", "%Inh": "13%"}
{"COMPOUND": "COc1cc(Nc2nccc(N3CCC(NC(=O)Nc4ccc5c(c4)OCO5)C3)n2)cc(OC)c1OC (stereo not drawn) [GSK1379766]", "TARGET_DESC": "p38-alpha", "%Inh": "0%"}
{"COMPOUND": "Cc1cccc(Nc2nc(N[C@H]3CCCC[C@H]3N)ncc2C(N)=O)c1.Cl [GSK986310]", "TARGET_DESC": "p38-alpha", "%Inh": "0%"}
{"COMPOUND": "COc1ccc(NC(=O)c2ccoc2)cc1-c1ccc(C(=O)NCC2CC2)cc1 [GW810437]", "TARGET_DESC": "p38-alpha", "%Inh": "10%"}
{"COMPOUND": "CCn1cnc2c(NCc3ccccc3)ncnc21 [SKF-96418]", "TARGET_DESC": "p38-alpha", "%Inh": "0%"}
{"COMPOUND": "CCOc1nccc(-c2c(-c3ccc(F)cc3)ncn2C2CCNCC2)n1 [SB-249175]", "TARGET_DESC": "p38-alpha", "%Inh": "99.3%"}
{"COMPOUND": "O=C1NC(=O)C(c2ccccc2Cl)=C1Nc1cccc(Cl)c1 [SB-342409]", "TARGET_DESC": "p38-alpha", "%Inh": "0%"}
{"COMPOUND": "COc1cccc2c(-c3ccncc3)c(-c3ccc(F)cc3)nn12 [GW468513]", "TARGET_DESC": "p38-alpha", "%Inh": "99.9%"}
{"COMPOUND": "COc1cc(Nc2nccc(N3CCC(NS(=O)(=O)c4ccc(NC(C)=O)cc4)CC3)n2)cc(OC)c1OC [GSK1379825]", "TARGET_DESC": "p38-alpha", "%Inh": "0%"}
